Listing of recorded % Blocking by entry.
biological target: T1, human CCR8 (human, UniProt P51685 1-355); test: flow blocking, PBMC CCR8+CD3+; competitor PE-AB6
T1 construct: Native CCR8 on human PBMC (CCR8+ CD3+ or CCR8+ CD4+ lymphocytes); also called chemokine (C-C motif) receptor 8
T1 sequence (P51685 whole entry): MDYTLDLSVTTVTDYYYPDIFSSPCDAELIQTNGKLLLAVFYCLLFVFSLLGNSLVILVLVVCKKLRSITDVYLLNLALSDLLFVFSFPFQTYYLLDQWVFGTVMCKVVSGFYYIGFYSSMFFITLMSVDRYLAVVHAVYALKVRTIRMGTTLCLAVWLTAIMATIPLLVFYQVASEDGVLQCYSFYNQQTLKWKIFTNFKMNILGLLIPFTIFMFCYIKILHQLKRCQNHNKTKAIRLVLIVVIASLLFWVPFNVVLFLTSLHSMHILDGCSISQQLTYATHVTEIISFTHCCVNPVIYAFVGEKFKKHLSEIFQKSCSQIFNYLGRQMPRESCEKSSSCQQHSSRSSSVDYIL
Numbers only; they are read as %.

// worked examples, % Blocking included
QUERY: I have this binder here, AB6 (antibody, V domains shown, Hybridoma monoclonal; Same VH/VL entries as AB5; also called antibody 6; clone 6) VH: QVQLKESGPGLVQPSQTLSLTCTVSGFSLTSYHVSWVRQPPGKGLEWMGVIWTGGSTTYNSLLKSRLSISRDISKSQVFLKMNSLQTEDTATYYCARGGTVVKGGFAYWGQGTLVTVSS VL: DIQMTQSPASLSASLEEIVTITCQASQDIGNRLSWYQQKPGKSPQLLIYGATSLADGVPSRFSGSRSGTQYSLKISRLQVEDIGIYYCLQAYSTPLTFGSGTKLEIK , and I need its recorded % Blocking.
RESULT: -4.93

QUERY: Would you kindly repeat that for AB7 (antibody, V domains shown, Hybridoma monoclonal; also called antibody 7; clone 7) VH: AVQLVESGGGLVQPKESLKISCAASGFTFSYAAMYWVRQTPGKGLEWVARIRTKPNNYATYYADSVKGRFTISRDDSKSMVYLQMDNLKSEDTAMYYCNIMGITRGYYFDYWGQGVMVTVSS VL: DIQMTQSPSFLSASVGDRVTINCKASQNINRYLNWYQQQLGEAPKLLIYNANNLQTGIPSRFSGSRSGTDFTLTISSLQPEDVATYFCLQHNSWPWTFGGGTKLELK ?
RESULT: -23.2

QUERY: Would you kindly repeat that for AB11 (antibody, V domains shown, Hybridoma monoclonal; also called antibody 11; clone 11) VH: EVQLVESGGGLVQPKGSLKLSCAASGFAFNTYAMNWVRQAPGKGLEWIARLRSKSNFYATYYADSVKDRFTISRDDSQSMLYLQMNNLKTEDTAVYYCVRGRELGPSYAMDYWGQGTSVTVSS VL: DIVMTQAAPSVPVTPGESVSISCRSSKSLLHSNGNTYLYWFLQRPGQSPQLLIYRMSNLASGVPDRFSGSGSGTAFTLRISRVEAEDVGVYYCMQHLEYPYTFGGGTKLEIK ?
RESULT: -8.93

Here is the next item to consider.
QUERY: I have this binder here, AB8 (antibody, V domains shown, Hybridoma monoclonal; also called antibody 8; clone 8) VH: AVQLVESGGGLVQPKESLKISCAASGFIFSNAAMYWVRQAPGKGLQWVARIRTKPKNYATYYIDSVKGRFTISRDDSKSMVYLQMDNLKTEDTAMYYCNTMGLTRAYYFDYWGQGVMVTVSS VL: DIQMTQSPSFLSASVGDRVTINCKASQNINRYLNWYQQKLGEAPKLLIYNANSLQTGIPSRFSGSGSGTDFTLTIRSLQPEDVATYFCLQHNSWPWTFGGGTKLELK , and I need its recorded % Blocking.
RESULT: -17.3
